- Test system: MDA-MB-435
Classes to choose from: yes (1) (active), no (0) (inactive)

The following compounds have reported results that may help.
- compound: "C[C@@H]1CN2[C@H]3[C@@H]1CC[C@]31CCC(=O)O[C@]1(C)[C@@H]1CC[C@H]3CCC=C3[C@@H]12"
  target-under-test: "MDA-MB-435"
  label: "no (0)"
- compound: "O=C(/C=C/c1cccc(B(O)O)c1)c1cccc(B(O)O)c1"
  target-under-test: "MDA-MB-435"
  label: "no (0)"
- compound: "CON"
  target-under-test: "MDA-MB-435"
  label: "no (0)"
- compound: "ClC1=C(Cl)C(Cl)=C(Cl)C1=Cc1ccc(Cl)cc1"
  target-under-test: "MDA-MB-435"
  label: "no (0)"
- compound: "CCN(CC)c1ccc2nc3c4ccccc4c(=NC(=O)c4ccccc4-c4c5ccc(N(CC)CC)cc5[o+]c5cc(N(CC)CC)ccc45)cc-3oc2c1"
  target-under-test: "MDA-MB-435"
  label: "no (0)"
- compound: "Cc1cc2nc3c4ccccc4n(CCN(C)C)c3nc2cc1C"
  target-under-test: "MDA-MB-435"
  label: "no (0)"

Next up:
Query :: Recorded test call requested for O=C(CC1(O)C(=O)Nc2c(Cl)ccc(Cl)c21)c1ccc(C2CC2)cc1 (configuration not stated)
Result :: yes (1)

---

- Test system: SK-MEL-5 melanoma
- method-notes: NCI tumour cell line growth inhibition, 48 h
value-kind: TGI

# count of solved cases: 8
- compound: "CC[N+](CC)(CC)/C(=N/S(=O)(=O)c1cc(C)c(Cl)cc1S)[N-]S(=O)(=O)c1ccc(Cl)cc1"
  reported: "> 100 µM"
- compound: "O=C1C2Nc3ccccc3SC2C(=O)N1c1cccc([N+](=O)[O-])c1 (centres undefined)"
  reported: "> 100 µM"
- compound: "CCOC(=O)C(Cc1cn(S(=O)(=O)c2ccc(C)cc2)cn1)P(=O)(OCC)OCC (centres undefined)"
  reported: "> 100 µM"
- compound: "CC1(C)C(=O)C2(C#N)CCC1C2 (centres undefined)"
  reported: "> 100 µM"
- compound: "CCCC(=O)OCC(O)CO (centres undefined)"
  reported: "> 5000 µM"
- compound: "COC(=O)C1=Cc2c(OC)cc(OC)c(OC)c2[C@H](c2cc(OC)c(OC)cc2OC)C1C(=O)OC (some centres undefined)"
  reported: "> 100 µM"
- compound: "C[C@@H]1CN2[C@H]3[C@@H]1CC[C@]31CCC(=O)O[C@]1(C)[C@@H]1CC[C@H]3CCC=C3[C@@H]12"
  reported: "> 70 µM"
- compound: "ClCC1(CCl)COC1"
  reported: "> 100 µM"

Continue with the next compound.
Query :: What value of measured TGI is listed for CCOC(=O)CNC(=O)C(CSC(=O)N(C)O)NC(=O)CCC(N)C(=O)O (centres undefined) ?
Result :: > 2000 µM

---

- System: MOLT-4 leukemia
- method-notes: NCI tumour cell line growth inhibition, 48 h
value-kind: TGI

The cases that follow already have their TGI on record.
- molecule: "C1=c2ccccc2=C2C(=C(c3ccccc3)C(c3ccccc3)=NN2c2ccccc2)S1"
  reported: "> 100 µM"
- molecule: "O=C1c2ccccc2C(=O)c2c(NC(=O)c3ccc4c5c(ncnc35)-c3ccccc3C4=O)cccc21"
  reported: "> 100 µM"
- molecule: "O=C(Nc1ccc(S(=O)(=O)NC2CCCCCC2)cc1)C(c1ccccc1)S(=O)(=O)c1ccc(F)cc1 (configuration not stated)"
  reported: "> 100 µM"

Query :: Requested read-out: TGI. Entry: Cn1c(N)c(-c2c3ccccc3nc3ccccc23)c(=O)n(C)c1=O
Result :: > 100 µM

Query :: Again, but for CCCCCCC1N=C(N)N=C(N)N1c1ccc(Cl)cc1 (configuration not stated)
Result :: 32.5 µM

Query :: How about this molecule: NC(N)=NS(=O)(=O)c1ccc(NNc2c3ccccc3nc3c(C(=O)Nc4ccc(S(N)(=O)=O)cc4)cccc23)cc1
Result :: 70.6 µM

Query :: Could you do the same for NC(N)=N/N=C/c1ccc(O)c(C(=O)O)c1 , please?
Result :: > 100 µM
